Origin of the recorded values: ChEMBL document CHEMBL1149739

# TEST METHOD NOTES: Inhibition of rat brain Na(+)/K(+) ATPase
Where a name gives a salt, the structure may show the parent alone.
PROPERTY LABEL: pIC50
On this scale, pIC50 is minus log10 of a concentration expressed in M (mol/L).

MOLECULE	READOUT VALUE
CC(C)=CCC/C(C)=C/CC/C(C)=C/CC/C(C)=C/CC/C(C)=C/CCC1(C)C=Cc2cc(OS(=O)(=O)O)ccc2O1 (configuration not stated) [SODIUM SARCOCHROMENOL SULFATE A]	5.80

Field: next molecule
Documented pIC50 of CC(C)=CCC/C(C)=C/CC/C(C)=C/CC/C(C)=C/CC/C(C)=C/CC/C(C)=C/CC/C(C)=C/Cc1cc(OS(=O)(=O)O)ccc1OS(=O)(=O)O [DISODIUM SARCOHYDROQUINONE SULFATE B] : 5.85
